# Population Hoechst High Intensity Objects (%) listing for each entry below
# System: HEK-293T
# protocol_text: Multiplex assay against HEK293T
# Type: toxicity, cell-based
# cond: human, 24 h, 10 µM, compound concentration 10 uM, replicate 2
result_type: Population Hoechst High Intensity Objects (%)

molecule=Cl.O=C(O)c1cc(-c2ccc(C3CCNCC3)cc2)c2ccc(-c3ccc(C(F)(F)F)cc3)cc2c1 observed_result=28
molecule=CCc1ccc(OCc2ccccc2C(=O)Nc2ccc3nc(C)cc(N)c3c2)cc1.Cl observed_result=26
molecule=CC(C)NC(=O)N1CC[C@H](NC2=Nc3cc(F)ccc3N(CC(F)F)c3ccc(Cl)cc32)C1 observed_result=2
molecule=CC(C)Oc1ccccc1C(=O)Nc1ccccc1C(=O)Nc1cccc(S(=O)(=O)C(F)(F)F)c1 observed_result=3
molecule="CN1CCN(Cc2ccc(Nc3ncc(Cl)c(Nc4ccccc4S(=O)(=O)N(C)C)n3)cc2)CC1 [DUBERMATINIB]" observed_result=6

* * *

This section presents molecules with their documented Population Mitochondria Different-Phenotype (%) values.
# Test system: HEK-293T
# protocol_text: Multiplex assay against HEK293T
# Type: toxicity, cell-based
# cond: human, 12 h, 1 µM, compound concentration 1 uM, replicate 1
result_type: Population Mitochondria Different-Phenotype (%)

molecule="CNC(=O)Nc1ccc2c(c1)[C@@]1(CC2)OC(=O)N(CC(=O)N(Cc2ccc(F)cc2)[C@@H](C)C(F)(F)F)C1=O [A-486]" unit_info=% observed_result=15
molecule=CC(C)NC(=O)N1CC[C@H](NC2=Nc3cc(F)ccc3N(CC(F)F)c3ccc(Cl)cc32)C1 unit_info=% observed_result=78
molecule=CC(C)OC(=O)N1CCC(Oc2ncnc3c2cnn3-c2ccc(S(C)(=O)=O)cc2F)CC1 unit_info=% observed_result=80
molecule="C[C@]12CC[C@@H]3c4ccc(O)cc4CC[C@H]3[C@@H]1CC[C@@H]2O [ESTRADIOL]" unit_info=% observed_result=72
molecule="COc1ccccc1CN[C@H]1C2CCN(CC2)[C@H]1C(c1ccccc1)c1ccccc1 [CP-96345]" unit_info=% observed_result=90
molecule="Cc1c[nH]c2nccc(Oc3c(F)cc(Nc4cc(Cl)nc(N)n4)cc3F)c12 [BAY-549]" unit_info=% observed_result=71
molecule=C=CC(=O)Nc1cccc(Oc2nc(Nc3ccc(N4CCN(C)CC4)cc3OC)ncc2Cl)c1 unit_info=% observed_result=25
molecule=C=CC(=O)Nc1cccc(Sc2nc(Nc3ccc(N4CCN(C)CC4)cc3)ncc2Cl)c1 unit_info=% observed_result=15
molecule=CC(C)Oc1ccccc1C(=O)Nc1ccccc1C(=O)Nc1cccc(S(=O)(=O)C(F)(F)F)c1 unit_info=% observed_result=90
molecule=O=c1[nH]c2ccccc2n1C1CCN(Cc2ccc(-c3[nH]c4cc5ncnc5cc4nc3-c3ccccc3)cc2)CC1 unit_info=% observed_result=3
molecule="COc1ccc(-c2ccc3ncc4c(c3c2)n(-c2ccc(N3CCNCC3)c(C(F)(F)F)c2)c(=O)n4C)cn1.O=C(O)/C=C\\C(=O)O [BGT-226]" unit_info=% observed_result=87
molecule=O=c1cc(N2CCOCC2)oc2c(-c3cccc4c3sc3ccccc34)cccc12 unit_info=% observed_result=92
molecule="CC1=C(C(=O)Nc2cc3cn[nH]c3cc2F)C(c2ccc(C(F)(F)F)cc2)CC(=O)N1 (centres undefined)" unit_info=% observed_result=63
molecule="CC(C)CC(=O)Nc1[nH]nc2c1CN(C(=O)C1CCN(C)CC1)C2(C)C [PHA-793887]" unit_info=% observed_result=4

These entries and their values trace back to ChEMBL document CHEMBL4689842.
